- ASSAY PROCEDURE: NCI Yeast Anticancer Drug Screen. Data for the mlh1 rad18 strain (AID 175)
- CONDITION DETAILS: S. cerevisiae mlh1 rad18 strain growth inhibition; at 5.0 µM (retest, dose inferred, filed as 0.5); active compounds read high
Compounds without any hit were thinned out: in the full panel of roughly 79,000, 15% have a hit.
Reported growth inhibition values are given for each entry in this list.

{"columns": ["COMPOUND", "UNIT OF MEASUREMENT", "growth inhibition"],
 "data": [
  ["O=[N+]([O-])c1ccc(C2=C[P+](c3ccccc3)(c3ccccc3)C=C(c3ccccc3)O2)cc1", "%", 22],
  ["Cc1ccc(NC2=CC(=O)C(NO)c3ccccc32)cc1 (stereo not given)", "%", 13],
  ["c1ccc2c(c1)oc1cc3c(cc12)CCCN3", "%", 18],
  ["CCCCCCCCCc1c(O)c(O)c(CCCCCCCCC)c(CCCCCCCCC)c1CCCCCCCCC", "%", -6],
  ["COC(=O)N/N=C(/CC1(O)C(=O)Nc2ccccc21)c1ccc(Cl)cc1Cl (stereo not given)", "%", 19],
  ["C/C=C\\C(/C=C/C)(C(=O)OCCN(C)C)C(/C=C\\C)(/C=C/C)C(=O)OCCN(C)C (stereo not given)", "%", 3],
  ["COc1cc(C2c3cc4c(cc3[C@@H](Nc3cccc(O)c3)C3COC(=O)[C@H]23)OCO4)cc(OC)c1O (stereo not given in full)", "%", 94],
  ["CSc1cc2c(cc1N)Cc1cc(F)ccc1-2", "%", -2],
  ["Cc1ccc(S(=O)(=O)NCCCSCCO)cc1", "%", -1],
  ["CC(=O)Oc1c(Br)ccc2cc(C(Br)Br)c(C(=O)c3ccccc3)nc12", "%", 53]
]}

###

- ASSAY PROCEDURE: NCI Yeast Anticancer Drug Screen. Data for the cln2 rad14 strain (AID 165);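 further: 0% = growth equal to vehicle treated cultures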
- CONDITION DETAILS: S. cerevisiae cln2 rad14 strain, at 5.0 µM (retest, dose inferred, filed as 0.5)
About 79,000 compounds went through this panel and 15% of them were active in at least one assay; those are over-represented in the sample as a whole. Calls of active or inactive are those of the source. Rule as the data show it: active = growth inhibition above about 70%; inactive = the rest. Where a SMILES comes first, the peptide text is derived from it. The star is where a group is joined. Fmoc = O=C(OCC1c2ccccc2-c2ccccc21)*; Boc = CC(C)(C)OC(=O)*
Labels: active, inactive

{"columns": ["MOLECULE", "ASSIGNED CATEGORY"],
 "data": [
  ["Cc1ccc(Cc2n[nH]c(=O)[nH]2)cc1", "inactive"],
  ["CC(=O)NC1CCCCC1c1ccc(C2CCCCC2NC(C)=O)cc1 (stereo not drawn)", "inactive"],
  ["CCCn1cc2c(SC)nc(SC)nc2n1", "inactive"],
  ["O=C(COC(=O)C(c1ccccc1)c1ccccc1)c1ccc(Br)cc1", "inactive"],
  ["O=C1OC(=O)c2cccc3cccc1c23", "inactive"],
  ["C=C1CC23CCC4C(C)(C(=O)O)CCCC4(C)C2CCC1C3 (stereo not drawn)", "inactive"],
  ["CC1C[N+](C)(C)C(C)C(=O)C1(c1ccccc1)c1ccccc1 (stereo not drawn)", "inactive"],
  ["CCCCNCCCNCCCNC(=O)c1csc(-c2csc(CCNC(=O)C(NC(=O)C(C)C(O)C(C)NC(=O)C(NC(=O)c3nc(C(CC(N)=O)NCC(N)C(N)=O)nc(N)c3C)C(OC3OC(CO)C(O)C(O)C3OC3OC(CO)C(O)C(OC(N)=O)C3O)c3cnc[nH]3)C(C)O)n2)n1 (stereo not drawn)", "active"],
  ["O=C1CSC(Cc2nc3ccccc3[nH]2)=N1", "inactive"],
  ["Oc1cccc2ccncc12", "inactive"],
  ["NCc1ccc(O)c(O)c1O", "inactive"],
  ["CCCCCCCCCCCc1nnc(N)o1", "inactive"],
  ["O=C(OCc1ccccc1)c1ccc(O)cc1", "inactive"],
  ["Cc1cccc2c1C1c3c(C)cccc3C(O)CC1CC2O (stereo not drawn)", "inactive"],
  ["Oc1c(Br)ccc2c(O)c(Br)ccc12", "inactive"],
  ["COC(=O)/C(C#N)=C/c1cc(OC)c(O)cc1Br", "inactive"],
  ["CC(C)(C)OC(=O)NCCCCC(NC(=O)OCC1c2ccccc2-c2ccccc21)C(=O)N1CCCC1C(=O)NCC(N)=O (stereo not drawn) (Fmoc-Lys(Boc)-Pro-Gly-NH2; configuration not given here)", "inactive"],
  ["CCCCCCCCCCN1CCN(C(=O)OCC)CC1", "inactive"],
  ["O=[N+]([O-])c1ccc(CN2CCN(c3nccs3)CC2)cc1", "inactive"],
  ["CN(C)CCC(/C=C/c1ccccc1)=N\\Nc1ccc(Cl)cc1", "inactive"],
  ["Cc1cc(Cl)c2c(c1)C(=O)/C(=C/c1ccc(Cl)cc1)O2", "inactive"],
  ["CCOC(=O)C(C(=O)OCC)c1ccc([N+](=O)[O-])o1", "inactive"],
  ["CC(=O)c1sc(Nc2ccc(Cl)c(Cl)c2)nc1C", "inactive"]
]}

###

- ASSAY PROCEDURE: NCI Yeast Anticancer Drug Screen. Data for the mlh1 rad18 strain (AID 175)
- CONDITION DETAILS: S. cerevisiae mlh1 rad18 strain growth inhibition; at 50.0 µM; active compounds read high
The panel holds about 79,000 compounds, 15% with a hit somewhere; the sample as a whole holds those more often.
Decide by growth inhibition: equal to or exceeding 70% means TRUE, less means FALSE.

{"columns": ["COMPOUND", "ASSIGNED CATEGORY"],
 "data": [
  ["Cc1cccc(NC(=S)N/N=C(/c2ccccc2)c2ccccn2)c1", "TRUE"],
  ["CN(C)[C@@H]1C(=O)C(C(=O)NCNc2nc3n[nH]nc3c(=O)[nH]2)=C(O)[C@@]2(O)C(=O)C3=C(O)c4c(O)cccc4[C@@](C)(O)[C@H]3C[C@@H]12", "FALSE"],
  ["Clc1c(Cl)c(Cl)c(SC2C3CC4C(C3)C42)c(Cl)c1Cl (centres undefined)", "TRUE"],
  ["CC(NNC(=S)N1CCCC1)c1cc2ccccc2cn1 (centres undefined)", "TRUE"],
  ["NC(N)=NS(=O)(=O)c1ccc(N=Cc2c3ccccc3nc3cc(Cl)ccc23)cc1", "TRUE"],
  ["NC(=O)C(CCc1cccc2ccccc12)c1ccccc1 (centres undefined)", "TRUE"],
  ["c1ccc(N=C2SC3=NCCN3C2=Nc2ccccc2)cc1", "FALSE"],
  ["COc1ccc(CC/C(=N/O)c2ccccc2)cc1", "TRUE"],
  ["CN(C)CC[N+](C)(C)Cc1ccc(C[N+](C)(C)CC[N+](C)(C)Cc2ccc(CCl)cc2)cc1", "TRUE"],
  ["Cc1cc(N2C(=O)CSC2=S)c([N+](=O)[O-])cc1C", "TRUE"],
  ["N#[N+]c1c([O-])ccc2nc3ccccc3nc12", "FALSE"],
  ["CC(=O)Oc1c(O)c2ccccc2c2ccccc12", "TRUE"],
  ["CC(C)(C)c1ccc(C(=O)n2c(=S)oc3ccc(Cl)cc32)cc1", "FALSE"],
  ["CC1=C(C(=O)Nc2cc(C)ccc2C)C(c2cccc([N+](=O)[O-])c2)C(C(=O)Nc2cc(C)ccc2C)=C(C)N1", "FALSE"]
]}

###

- ASSAY PROCEDURE: NCI Yeast Anticancer Drug Screen. Data for the mec2-1 strain (AID 157)
- CONDITION DETAILS: S. cerevisiae mec2-1 strain, at 50.0 µM (retest, dose inferred, filed as 5.0), active compounds read high
About 79,000 compounds went through this panel and 15% of them were active in at least one assay; those are over-represented in the sample as a whole. The source made the active and inactive calls. Cut-off read from the data, not from the text of the source: active = growth inhibition above about 70%; inactive = the rest.

{"columns": ["COMPOUND", "growth inhibition"],
 "data": [
  ["CCCCCCCCCCCCNC(=O)C[n+]1cccc(C(=O)Nc2ccccc2)c1", "99% (active)"],
  ["CCCC(C)NCCCCCNc1cc(OC)cc2cccnc12 (stereo not drawn)", "22% (inactive)"],
  ["COc1ccc(/C(C#N)=C(/N)SCc2ccccc2Cl)cc1", "14% (inactive)"],
  ["CCCCCCCCCCN(CCCCCCCCCC)C(=O)COc1c2cc(C(C)(C)C)cc1Cc1cc(C(C)(C)C)cc(c1OCC(=O)N(CCCCCCCCCC)CCCCCCCCCC)Cc1cc(C(C)(C)C)cc(c1OCC(=O)N(CCCCCCCCCC)CCCCCCCCCC)Cc1cc(C(C)(C)C)cc(c1OCC(=O)N(CCCCCCCCCC)CCCCCCCCCC)C2", "95% (active)"],
  ["COC(=O)C1(Cc2ccccc2C)Cc2ccc(C)cc2C1=O (stereo not drawn)", "28% (inactive)"],
  ["CC(C)C1=CC2=CC(=O)C3C(C)(C)CCCC3(C)C2=C(O)C1=O (stereo not drawn)", "94% (active)"],
  ["CCCC(=O)Oc1ccc(-c2ccc(Br)cc2)cc1", "93% (active)"],
  ["CN(Cc1cnc2nc(N)nc(N)c2n1)c1ccc(C(=O)NC(CCC(=O)O)C(=O)O)cc1C(F)(F)F (stereo not drawn)", "98% (active)"],
  ["CCN(CC)CCCNc1ccc([N+](=O)[O-])c2nc3ccc(OC)cc3c(N)c12", "27% (inactive)"],
  ["COC(=O)C(O)(/C(=N\\O)c1ccccc1)c1ccccc1 (stereo not drawn)", "-1% (inactive)"],
  ["C/C=C(\\C)C(=O)OC1C2C(C)=CC(=O)C(O)C2(C)C2C3(O)OCC24C1OC(=O)C(O)C4C(C)C3O (stereo not drawn)", "30% (inactive)"],
  ["CCn1c(C)cc(=O)n1-c1ccc([N+](=O)[O-])cc1", "-50% (inactive)"],
  ["CSc1ccc(/C=C2/C[N+](C)(C)C/C(=C/c3ccc(SC)cc3)C2=O)cc1", "22% (inactive)"],
  ["COc1ccc2c(c1)nc1cc(Cl)ccc1[n+]2C", "95% (active)"],
  ["COc1ccc2nccc(C(=O)CBr)c2c1", "-5% (inactive)"],
  ["Cc1ccc2nc(CC(=O)c3cccnc3)c(CC(=O)c3cccnc3)nc2c1", "94% (active)"],
  ["COc1ccc(/C=C/Cc2cc3c(cc2O)OCO3)cc1", "-10% (inactive)"],
  ["CCCCN(CCCC)CC(O)c1ccc2cc(Cl)c3ccccc3c2c1 (stereo not drawn)", "100% (active)"]
]}

Where these numbers come from: PubChem BioAssay (NCI)
